Biological target: Utp23 (Saccharomyces cerevisiae?) (UniProt Q12339)
Sequence: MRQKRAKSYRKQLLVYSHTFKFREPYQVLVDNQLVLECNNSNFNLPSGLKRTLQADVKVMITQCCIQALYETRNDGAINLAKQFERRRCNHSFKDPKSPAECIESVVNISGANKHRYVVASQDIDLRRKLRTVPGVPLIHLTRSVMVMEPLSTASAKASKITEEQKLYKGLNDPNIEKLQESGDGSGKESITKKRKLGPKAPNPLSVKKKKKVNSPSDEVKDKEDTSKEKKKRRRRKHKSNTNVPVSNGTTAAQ
Experiment: filter binding
Details: 20 mM HEPES-KOH pH 7.4, 150 mM NaCl, 1.5 mM MgCl2, 10% glycerol, 30°C, 10 min; nitrocellulose filtration
result type: Kd (nM)
One number for each entry, in nM.

The recorded Kd for entry GGGUUAAUAGGGACGGUCGGGGGCAUCAGUAUUCAAUUGUCAGAGGUGAAAUUCUUGGAUUUAUUGAAGACUAACUACUGCGAAAGCAUUUGCCAAGGACGUUUUC [H22/23] equals 8.8

The origin of these recorded values is paper PMC9176245.
